Item-by-item account of pKi
target: horse serum BChE (Equus caballus); construct: horse serum BChE (EC 3.1.1.8); purchased Sigma-Aldrich Co; host or cells: horse serum; assay: Kinetic analysis of BChE inhibition (Dixon and Lineweaver−Burk plots); format: biochemical; conditions: determined by Dixon plot; read-out: Ki BChE
Sequence (P81908 whole entry): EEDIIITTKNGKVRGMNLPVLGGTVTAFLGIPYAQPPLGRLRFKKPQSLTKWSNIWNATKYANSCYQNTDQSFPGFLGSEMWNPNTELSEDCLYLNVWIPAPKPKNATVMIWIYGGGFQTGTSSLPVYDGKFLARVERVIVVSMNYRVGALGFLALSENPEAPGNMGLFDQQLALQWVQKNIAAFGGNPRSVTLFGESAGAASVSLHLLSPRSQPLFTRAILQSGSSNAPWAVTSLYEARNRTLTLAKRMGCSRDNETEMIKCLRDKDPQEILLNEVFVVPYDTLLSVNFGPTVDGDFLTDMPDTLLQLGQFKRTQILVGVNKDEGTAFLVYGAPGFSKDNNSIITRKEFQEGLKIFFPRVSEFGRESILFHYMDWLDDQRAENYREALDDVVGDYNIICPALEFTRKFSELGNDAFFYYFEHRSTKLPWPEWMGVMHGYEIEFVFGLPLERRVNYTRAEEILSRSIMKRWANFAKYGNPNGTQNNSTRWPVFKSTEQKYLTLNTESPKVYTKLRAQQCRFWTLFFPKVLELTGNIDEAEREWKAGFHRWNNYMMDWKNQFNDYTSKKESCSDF
pKi: −log10 of the molar value.
READOUT KIND: pKi

MOLECULE	VALUE MEASURED
Cc1cc2c(c(C)c1CCOC1OC(CO)C(O)C(O)C1O)C(=O)C(C)C2 [(2R)-Pteroside B, (2R)-pteroside B]	4.65
Cc1cc2c(c(C)c1CCOC1OC(CO)C(O)C(O)C1O)C(=O)C(C)(C)C2O [(3S)-Pteroside D, (3S)-pteroside D]	4.71
Cc1cc2c(c(C)c1CCOC1OC(CO)C(O)C(O)C1O)C(=O)C(C)C2O [(2R,3R)-Pteroside C, (2R,3R)-pteroside C]	5.02

Origin of the recorded values: paper PMC6372667
